Entry source: patent US20240287062A1

- Test system: A375 (BRAF V600E)
- Assay Notes: Cell viability assay (CellTiter Glo)
- Format: cell-based
- Assay Conditions: A375, 250 cells seeded per well, 72 hours; read-out: BRAF Cytotoxicity (IC50, nM) A375 (250 cells)
Observed Property: IC50 (nM)
Field format: number, assumed nM, no unit text.

Compound	Units Symbol	IC50
CCCC(O)c1cc(C)c(-c2cc3cnc(NC(=O)[C@H]4C[C@H]4F)cc3n(C)c2=O)cn1 (single isomer, unassigned) [Example S43, Isomer A]	nM	152

IC50 on A375 (BRAF V600E) for COCC(O)c1cc(C)c(-c2cc3cnc(NC(=O)C4CC4)cc3n(C)c2=O)cn1 (single isomer, unassigned) [Example S60, Enantiomer A] is 5950

Bench note, A375 (BRAF V600E): CCCC(O)c1cc(C)c(-c2cc3cnc(NC(=O)[C@H]4C[C@H]4F)cc3n(C)c2=O)cn1 (single isomer, unassigned) [Example S43, Isomer B] , IC50 reads 335

Measured on A375 (BRAF V600E), COCC(O)c1cc(C)c(-c2cc3cnc(NC(=O)C4CC4)cc3n(C)c2=O)cn1 (single isomer, unassigned) [Example S60, Enantiomer B] has a documented IC50 of 1070
